Test: osmotic lysis modulators in infected erythrocytes, primary screen, PSAC antagonist project, cell-based, P. falciparum Indochina, OD700, 3 h (AID 1156)
Details: higher = more signal, called active from +8 up or from −8 down
Field: z-score. Provide a value for each of the compounds that follow.
Keep it simple and answer with nothing but the number.

I have this compound here, CCCNC(=O)OC[C@H]1O[C@H](CCON=C[C@@H](C)[C@H](OCc2ccccc2)C(C)C)C=C[C@@H]1Oc1ccc(OC)cc1 , and I need its recorded z-score.
0.141

Could you share which z-score value was measured for COC(=O)[C@H](C)NC(=O)CCC1CC(OC(=O)NCc2ccc3c(c2)OCO3)CC2(CCCC(COC(=O)NCCC(C)C)O2)O1 (some centres undefined) ?
0.3

Given the entry CCCNC(=O)OC[C@H]1O[C@H](CCON=C2c3cc(OC)ccc3O[C@H](c3cccc(OC)c3)[C@H]2O)C=C[C@@H]1Oc1ccc(OC)cc1 , report its measured z-score.
0.431

Fill blank: measured z-score of the compound CCN1C(=O)[C@H]2[C@H]3[C@H](O)[C@H](O)CC(=NO[C@@H]4O[C@H](COC(C)=O)[C@@H](OC(C)=O)[C@H](OC(C)=O)[C@H]4OC(C)=O)[C@@H]3CC[C@H]2C1=O is ____.
-0.519
